Each recorded value in this set is attributed to ChEMBL document CHEMBL1135262.

target: Prothrombin (Homo sapiens)
// boundary case: Ki equal to 0.02 nM maps to criterion not met; strictly smaller maps to criterion met

> print(dat)
                                smiles.data     classification
1  N=C(N)c1ccc(CNC(=O)[C@@H]2CCCN2C(=O)[C@H](NS(=O)(=O)NC2CCCCC2)C(c2ccccc2)c2ccccc2)cc1.O=C(O)C(F)(F)F      criterion met
2  CS(=O)(=O)N[C@@H](C(=O)N1CCC[C@H]1C(=O)NCc1ccc(C(=N)N)s1)C(c1ccccc1)c1ccccc1      criterion met
3  CS(=O)(=O)N[C@H](Cc1ccc(Cl)c(Cl)c1)C(=O)N1CCC[C@H]1C(=O)NCc1ccc(C(=N)N)cc1  criterion not met
4  COP(=O)(N[C@@H](C(=O)N1CCC[C@H]1C(=O)NCc1ccc(C(=N)N)cc1)C(c1ccccc1)c1ccccc1)OC.O=C(O)C(F)(F)F  criterion not met
5  N=C(N)c1ccc(CNC(=O)[C@@H]2CCCN2C(=O)[C@H](NS(=O)(=O)Cc2ccccc2)C(c2ccccc2)c2ccccc2)cc1.O=C(O)C(F)(F)F      criterion met
6  N=C(N)c1ccc(CNC(=O)[C@@H]2CCCN2C(=O)[C@H](NS(N)(=O)=O)C(c2ccccc2)c2ccccc2)cc1.O=C(O)C(F)(F)F      criterion met
7  COC(=O)N[C@@H](C(=O)N1CCC[C@H]1C(=O)NCc1ccc(C(=N)N)cc1)C(c1ccccc1)c1ccccc1.O=C(O)C(F)(F)F  criterion not met

###

experiment: Compound was evaluated for its pharmacokinetic parameter maximum plasma concentration (Cmax) after oral administration to rats; format: ADME, organism-based; set-up: route oral; conditions: rat
Test Readout: log10 Cmax (log10 of the value in ng/mL)

> print(dat)
                                smiles.data  test.readout  observed.measurement
1  N=C(N)c1ccc(CNC(=O)[C@@H]2CCCN2C(=O)[C@H](N)C(c2ccccc2)c2ccccc2)cc1.O=C(O)C(F)(F)F    log10 Cmax                  3.15
2  N=C(N)c1ccc(CNC(=O)[C@@H]2CCCN2C(=O)[C@H](NCC(=O)O)C(c2ccccc2)c2ccccc2)cc1.O=C(O)C(F)(F)F    log10 Cmax                  3.11
3  N=C(N)c1ccc(CNC(=O)[C@@H]2CCCN2C(=O)[C@H](NS(=O)(=O)Cc2ccccc2)C(c2ccccc2)c2ccccc2)cc1.O=C(O)C(F)(F)F    log10 Cmax                  2.95
4  N=C(N)c1ccc(CNC(=O)[C@@H]2CCCN2C(=O)[C@H](Nc2ccccc2)C(c2ccccc2)c2ccccc2)cc1.O=C(O)C(F)(F)F    log10 Cmax                  2.48
5  COP(=O)(N[C@@H](C(=O)N1CCC[C@H]1C(=O)NCc1ccc(C(=N)N)cc1)C(c1ccccc1)c1ccccc1)OC.O=C(O)C(F)(F)F    log10 Cmax                  3.60
6  CS(=O)(=O)N[C@@H](C(=O)N1CCC[C@H]1C(=O)NCc1ccc(C(=N)N)cc1)C(c1ccccc1)c1ccccc1    log10 Cmax                  3.43

###

Molecular target: Serine protease 1 (Bos taurus)
Sequence (P00760 whole entry): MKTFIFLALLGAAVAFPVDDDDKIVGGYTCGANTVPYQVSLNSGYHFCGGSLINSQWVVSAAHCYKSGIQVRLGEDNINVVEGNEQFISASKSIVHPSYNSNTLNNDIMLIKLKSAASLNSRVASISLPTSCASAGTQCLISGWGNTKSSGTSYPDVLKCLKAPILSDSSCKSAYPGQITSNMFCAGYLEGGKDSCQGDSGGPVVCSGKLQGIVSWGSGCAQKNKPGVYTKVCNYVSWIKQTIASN
log10(Ki) values by entry
Test Readout: log10(Ki) (log10 of the value in nM)

> print(dat)
                                 smiles.data  observed.measurement
 1  CS(=O)(=O)N[C@@H](C(=O)N1CCC[C@H]1C(=O)NCc1cc(C(N)=NN)cs1)C(c1ccccc1)c1ccccc1                  2.40
 2  N=C(N)c1ccc(CNC(=O)[C@@H]2CCCN2C(=O)[C@H](NCC(=O)O)C(c2ccccc2)c2ccccc2)cc1.O=C(O)C(F)(F)F                  0.48
 3  COC(=O)N[C@@H](C(=O)N1CCC[C@H]1C(=O)NCC#Cc1c[nH]cn1)C(c1ccccc1)c1ccccc1                  4.38
 4  N=C(N)c1ccc(CNC(=O)[C@@H]2CCCN2C(=O)[C@H](NS(=O)(=O)Cc2ccccc2)C(c2ccccc2)c2ccccc2)cc1.O=C(O)C(F)(F)F                 -0.24
 5  CS(=O)(=O)N[C@@H](C(=O)N1CCC[C@H]1C(=O)NCc1ccc(CN)s1)C(c1ccccc1)c1ccccc1                  1.93
 6  CS(=O)(=O)N[C@H](Cc1ccc(Cl)c(Cl)c1)C(=O)N1CCC[C@H]1C(=O)NCc1ccc(C(=N)N)cc1                 -0.10
 7  N=C(N)c1ccc(CNC(=O)[C@@H]2CCCN2C(=O)[C@H](N)C(c2ccccc2)c2ccccc2)cc1.O=C(O)C(F)(F)F                  0.40
 8  CS(=O)(=O)N[C@@H](C(=O)N1CCC[C@H]1C(=O)NCc1ccc(CN)c(N)c1)C(c1ccccc1)c1ccccc1                  1.04
 9  CS(=O)(=O)N[C@@H](C(=O)N1CCC[C@H]1C(=O)NCc1ccc(CN)nc1)C(c1ccccc1)c1ccccc1                  2.34
10  CS(=O)(=O)N[C@@H](C(=O)N1CCC[C@H]1C(=O)NCc1csc(C(=N)NN)c1)C(c1ccccc1)c1ccccc1                  2.73
11  COP(=O)(N[C@@H](C(=O)N1CCC[C@H]1C(=O)NCc1ccc(C(=N)N)cc1)C(c1ccccc1)c1ccccc1)OC.O=C(O)C(F)(F)F                  0.46
12  CS(=O)(=O)N[C@@H](C(=O)N1CCC[C@H]1C(=O)NCc1cc(CN)cs1)C(c1ccccc1)c1ccccc1                  1.83
13  Cc1cc(CNC(=O)[C@@H]2CCCN2C(=O)[C@H](NS(C)(=O)=O)C(c2ccccc2)c2ccccc2)ccc1CN                  2.04
14  COC(=O)N[C@@H](C(=O)N1CCC[C@H]1C(=O)NCc1ccc(C(=N)N)cc1)C(c1ccccc1)c1ccccc1.O=C(O)C(F)(F)F                 -0.51
15  CS(=O)(=O)N[C@H](CC1CCCCC1)C(=O)N1CCC[C@H]1C(=O)NCc1ccc(C(=N)N)cc1                  0.11

###

AUC values by entry
test: Compound was evaluated for its pharmacokinetic parameter maximum area under curve AUCmax; type: ADME, organism-based; design: time AUCmax; conditions: rat, in vivo
Test Readout: AUC (µg·h/mL)

> print(dat)
                                smiles.data  unit.abbreviation  observed.measurement
1  N=C(N)c1ccc(CNC(=O)[C@@H]2CCCN2C(=O)[C@H](NS(N)(=O)=O)C(c2ccccc2)c2ccccc2)cc1.O=C(O)C(F)(F)F            µg·h/mL                   272
2  COP(=O)(N[C@@H](C(=O)N1CCC[C@H]1C(=O)NCc1ccc(C(=N)N)cc1)C(c1ccccc1)c1ccccc1)OC.O=C(O)C(F)(F)F            µg·h/mL                   271
3  CS(=O)(=O)N[C@@H](C(=O)N1CCC[C@H]1C(=O)NCc1ccc(C(=N)N)cc1)C(c1ccccc1)c1ccccc1            µg·h/mL                   263

###

target: Coagulation factor X (Homo sapiens, UniProt P00742); assay: Compound was evaluated for the binding affinity against human Coagulation factor Xa
Sequence (P00742 41-179 limits assumed): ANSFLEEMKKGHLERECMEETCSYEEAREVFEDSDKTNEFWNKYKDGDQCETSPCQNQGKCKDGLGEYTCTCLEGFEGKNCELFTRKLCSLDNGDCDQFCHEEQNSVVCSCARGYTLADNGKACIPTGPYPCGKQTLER
Sequence (P00742 235-488 limits assumed): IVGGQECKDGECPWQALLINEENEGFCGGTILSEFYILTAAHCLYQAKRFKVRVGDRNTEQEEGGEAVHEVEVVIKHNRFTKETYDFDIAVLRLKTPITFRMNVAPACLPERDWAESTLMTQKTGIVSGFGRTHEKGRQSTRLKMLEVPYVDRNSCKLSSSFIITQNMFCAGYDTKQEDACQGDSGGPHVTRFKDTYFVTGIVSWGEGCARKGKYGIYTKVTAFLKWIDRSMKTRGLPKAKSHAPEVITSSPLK
Test Readout: Ki

> print(dat)
                                smiles.data  test.readout  observed.measurement
1  CS(=O)(=O)N[C@@H](C(=O)N1CCC[C@H]1C(=O)NCc1cc(C(N)=NN)cs1)C(c1ccccc1)c1ccccc1            Ki              59000 nM
2  CS(=O)(=O)N[C@H](CC1CCCCC1)C(=O)N1CCC[C@H]1C(=O)NCc1ccc(C(=N)N)cc1            Ki                200 nM
3  CS(=O)(=O)N[C@@H](C(=O)N1CCC[C@H]1C(=O)NCc1ccc(/C(N)=N/N)s1)C(c1ccccc1)c1ccccc1            Ki                193 nM
4  CS(=O)(=O)N[C@@H](C(=O)N1CCC[C@H]1C(=O)NCc1ccc(C(=N)N)cc1)C1CCCCC1            Ki               5000 nM
5  CS(=O)(=O)N[C@@H](C(=O)N1CCC[C@H]1C(=O)NCc1csc(CN)c1)C(c1ccccc1)c1ccccc1            Ki             100000 nM
6  CS(=O)(=O)N[C@H](Cc1ccc(Cl)c(Cl)c1)C(=O)N1CCC[C@H]1C(=O)NCc1ccc(C(=N)N)cc1            Ki                120 nM
7  CS(=O)(=O)N[C@@H](C(=O)N1CCC[C@H]1C(=O)NCc1ccc(C(=N)N)s1)C(c1ccccc1)c1ccccc1            Ki                360 nM
8  CS(=O)(=O)N[C@@H](C(=O)N1CCC[C@H]1C(=O)NCc1ccc(C(=N)N)cc1)C(c1ccccc1)c1ccccc1            Ki                300 nM
